Tested on: ACHN renal
Experiment: NCI-60 one-dose screen, 48 h (100 = growth as untreated, 0 = no growth, -100 = all killed)
Conditions: 10 µM unless noted
Description: Growth inhibition of the ACHN human tumor cell line is measured as a screen for anti-cancer activity. Cells are grown in 96 well plates and exposed to the test compound for 48 hours. Compounds are tested at a single concentration, which is 10^-5 M for most compounds. The reported endpoint is percent growth (GI% or GIPRCNT), where numbers from 0 - 100% represent growth inhibition, and numbers from -100% - 0 represent cell death. For example, a value of 40 represents 60% growth inhibition. […]
Compounds without any hit were thinned out: in the full panel of roughly 83,000, 20% have a hit. Active and inactive are the calls of the source. How the source made its calls: active means growth percent below 10; inactive means the rest.
outcome measure: growth

O=C1c2c(c3c4cc(O)ccc4oc3c3[nH]c4ccccc4c23)C(=O)N1O :: -5.43% (active)
O=c1c2c(O)cccc2oc2c3c(cc(O)c12)O[C@H]1OC=C[C@@H]31 :: 74.9% (inactive)
Cc1cnc2nc(NN)[nH]n12 :: 98.4% (inactive)
COc1cc(O)c2c(c1)/C=C/C[C@H](O)[C@H](O)C(=O)/C=C\C[C@H](C)OC2=O :: 6.98% (active)

Moving on to another compound below.
Qu. Which growth reading was recorded for the compound `Cc1cn(-c2cc(NC(=O)c3cncc(C#Cc4cnc5ccc(O[C@H]6CCOC6)nn45)c3)cc(C(F)(F)F)c2)cn1` ?
Ans. 87.7% (inactive)

###

System: SNB-19 CNS
Assay: NCI-60 one-dose screen, 48 h (100 = growth as untreated, 0 = no growth, -100 = all killed)
Conditions: 10 µM unless noted
Description: Growth inhibition of the SNB-19 human tumor cell line is measured as a screen for anti-cancer activity. Cells are grown in 96 well plates and exposed to the test compound for 48 hours. Compounds are tested at a single concentration, which is 10^-5 M for most compounds. The reported endpoint is percent growth (GI% or GIPRCNT), where numbers from 0 - 100% represent growth inhibition, and numbers from -100% - 0 represent cell death. For example, a value of 40 represents 60% growth inhibition. […]
This is part of a sample that, as a whole, favours compounds with a hit. Of some 83,000 tested, about 20% had one in any assay.
Use 80% as the dividing line for growth, with the line itself on the TRUE side and lower values as FALSE.

CC(=O)Nc1ccc(C)c(Nc2cc(-c3ccc(-n4cccn4)cc3)[nH]n2)c1 :: FALSE
CC1OC(O[C@@H]2[C@H](O)C(CO)OC(O[C@H]3COC(O[C@H]4CC[C@]5(C)[C@H]6CC[C@]78OC[C@@]9(CC[C@](C)(C=O)C[C@H]97)C(=O)C[C@@]8(C)[C@]6(C)CC[C@H]5C4(C)C)[C@@H](O)[C@@H]3O)[C@H]2OC2OC[C@@H](O)[C@@H](O)[C@@H]2O)[C@@H](O)[C@@H](O)[C@H]1O (some centres not stated) :: TRUE

Qu. API: above_or_equal(metric=growth, cutoff=80%) for item `COc1ccc(-c2ccc3c4c(cccc24)C(=O)N(N2C(=O)c4cccc5cccc(c45)C2=O)C3=O)cc1`
Ans. TRUE

Qu. Identify whether the reported growth of the following molecule is 80% or greater: `COc1cc(/C=C/C(=O)c2ccc(NC(=O)COc3cccc4cccnc34)cc2)cc(OC)c1OC`
Ans. FALSE

Qu. Tell me whether growth is at least 80% here: `C/C(Cc1ccc(Cl)cc1)=C(/c1ccccc1)c1ccc(OCCN)cc1`
Ans. TRUE

###

Test system: RXF 393 renal
Experiment: NCI-60 one-dose screen, 48 h
Conditions: 10 µM unless noted
About 83,000 compounds went through this panel and 20% of them were active in at least one assay; those are over-represented in the sample as a whole. Calls of active or inactive are those of the source. The calls were made as follows: active = growth percent below 10; inactive = the rest.
# valid calls are Y (active), N (inactive); nothing else

CS(=O)(=O)c1nccc(-c2c(-c3ccc(F)c(OCCc4ccc(F)cc4)c3)nc3sccn23)n1 :: N
COc1ccc(CCN2C(=O)/C(=C/c3nc(CO)cs3)SC2=S)cc1 :: N
COc1ccc2c(c1)oc1c3[nH]c4ccccc4c3c3c(c21)C(=O)N(O)C3=O :: N
CCC(C)[C@H]1OC(=O)[C@H](C(C)C)N(C)C(=O)[C@@H](C(C)C)OC(=O)[C@H](C(C)C)N(C)C(=O)[C@@H](C(C)CC)OC(=O)[C@H](C(C)C)N(C)C1=O (some centres not stated) :: N
O=C(COc1cccc2cccnc12)Nc1ccc(C(=O)/C=C/c2ccc(Cl)cc2)cc1 :: N

Qu. What is the recorded call for this compound in the test? Cc1ccc(NC(=O)N[C@@H](Cc2cc(F)cc(F)c2)C(=O)NC2C(=O)N3CCC[C@H]3C(=O)N3CCCC[C@H]3C(=O)N[C@@H](C)C(=O)N3C[C@H](C)C[C@H]3C(=O)O[C@H]2C)c(F)c1 (some centres not stated)
Ans. Y

Qu. Tell me the assay call for `O=C(CN1C(=O)S/C(=C\c2ccccc2)C1=O)Nc1ccc(C(=O)/C=C/c2cc3ccccc3nc2Cl)cc1` please.
Ans. N

###

Tested on: SK-MEL-5 melanoma
Assay: NCI-60 one-dose screen, 48 h (100 = growth as untreated, 0 = no growth, -100 = all killed)
Details: 10 µM unless noted
The panel holds about 83,000 compounds, 20% with a hit somewhere; the sample as a whole holds those more often.
outcome measure: growth (%)
Answers are plain numbers, in %.

O=C(Nc1ccc(-c2nc(-c3cccc(O)c3)c(-c3ccnc(Br)c3)[nH]2)cc1)c1ccccc1 :: -67
C#C[C@]1(O)CC[C@H]2[C@@H]3CC=C4c5sc(Nc6cc(Cl)ccn6)nc5CC[C@]4(C)[C@H]3CC[C@@]21C :: -58.9
COc1ccc2c(C3=C(c4cn(C)c5ccccc45)C(=O)NC3=O)coc2c1 :: 42.4
COc1ccc(-c2nc3cc(Cl)c(Cl)cc3n2CC(=O)N=Nc2c(O)[nH]c3ccc(Cl)cc23)cc1 :: 38.3
NS(=O)(=O)c1ccc(-n2cc(CC=O)nn2)cc1 :: 100

Please give growth for each item listed below.
1. CS(=O)c1nccc(-c2c(-c3ccc(F)c(OCc4ccccc4)c3)nc3sccn23)n1 (centres undefined)
2. O=C(/C=C1\C=CN(CCCCO)c2ccccc21)n1ccc2ccccc21
3. COc1ccc(Cn2cc3c(c2-c2ccccc2)CCCc2cnoc2-3)cc1[N+](=O)[O-]

Ans.
100
98.1
71.5

###

System: TK-10 renal
Test: NCI-60 one-dose screen, 48 h (100 = growth as untreated, 0 = no growth, -100 = all killed)
Settings: 10 µM unless noted
This is part of a sample that, as a whole, favours compounds with a hit. Of some 83,000 tested, about 20% had one in any assay. The source made the active and inactive calls. The calls were made as follows: active = growth percent below 10; inactive = the rest.
outcome measure: growth

N#Cc1ccc(S(=O)(=O)Nc2ccc(-c3cnc(N)[nH]3)cc2)cc1 :: 98.6% (inactive)
COc1ccc(-c2nnc(SCc3ccc(O)c4ncccc34)o2)cc1 :: 56.4% (inactive)
COc1ccc(-c2cc(-c3ccc(Cl)cc3)nc3nc(N)nn23)cc1 :: 93.2% (inactive)
Cn1cc(-c2nn3cc(-c4ccncc4)nc3s2)c2cc(Cl)ccc21 :: 116% (inactive)
COc1ccc([C@H]2[C@H](O)C(=O)N2c2cc(OC)c(OC)c(OC)c2)cc1 :: 69.8% (inactive)

Okay, here is my list. What is growth for each of these?
1. COc1ccc([C@@H]2[C@@H](O)C(=O)N2c2cc(OC)c(OC)c(OC)c2)cc1
2. Cc1ccc(S(=O)(=O)N/N=C/c2cn(-c3ccc(F)cc3)nc2-c2ccc(S(C)(=O)=O)cc2)cc1
3. CC1COc2c(N3CCN(C)CC3)c(F)cc3c(=O)c(C(=O)N/N=C/c4cc[nH]c4)cn1c23 (centres undefined)
4. C=CCn1c(SCC(=O)Nc2cccc(C(=O)/C=C/c3ccccc3Cl)c2)nc2ccccc2c1=O
5. Clc1ccccc1/C=C/c1nn2c(-c3ccncc3)nnc2s1

Ans.
1. 74.5% (inactive)
2. 103% (inactive)
3. 87.8% (inactive)
4. 110% (inactive)
5. 126% (inactive)

Please go through the list and note growth for each compound.
1. COc1ccc2c(c1)c(-c1nn3c(=O)cc(-c4ccccc4)nc3s1)cn2C
2. C/C(=C(/C)C1CC1CCN(C(=O)c1ccccn1)S(=O)(=O)c1ccc(C)cc1)C1CCCCC1 (centres undefined)

Ans.
64.1% (inactive)
105% (inactive)

For each listed entry, give its growth.
1. CSc1ccc(/C(=N/N=C(N)N)c2ccccc2)cc1
2. O=C1c2c(c3c4cc(O)ccc4oc3c3[nH]c4ccccc4c23)C(=O)N1O
3. CCNC(=O)Oc1ccc(/C(=C(/C)c2ccc(Cl)cc2)c2ccc(OCCN(C)C)cc2)cc1
4. O=c1[nH]c2cc(Cl)ccc2n1C1CCN(c2ccc3nnc(Cl)n3n2)CC1
5. COc1ccc(/C=C/C(=O)c2nnn(-c3ccc(C(=O)O)cc3)c2C)cc1OC

Ans.
1: 63.9% (inactive); 2: 31.1% (inactive); 3: 92% (inactive); 4: 92.9% (inactive); 5: 113% (inactive)

Hi! Can you tell me growth for each of these compounds?
1. C#C[C@]1(O)CC[C@H]2[C@@H]3CC=C4c5sc(Nc6cc(Cl)ccn6)nc5CC[C@]4(C)[C@H]3CC[C@@]21C
2. CC[C@@](C)(NC(=O)C(C)(C)NC(=O)[C@@H](NC(=O)[C@@H]1CCCN1C(=O)C(C)(C)NC(=O)[C@H](CC(C)C)NC(=O)CNC(=O)C(C)(C)NC(=O)[C@@H](NC(=O)C(C)(C)NC(=O)[C@H](CCC(N)=O)NC(=O)[C@H](C)NC(=O)C(C)(C)NC(=O)[C@H](C)NC(=O)C(C)(C)NC(=O)[C@@H]1CCCN1C(=O)C(C)(C)NC(C)=O)C(C)C)C(C)C)C(=O)N[C@@H](CCC(N)=O)C(=O)N[C@@H](CCC(N)=O)C(=O)N[C@H](CO)Cc1ccccc1

Ans.
1. 35.4% (inactive)
2. 90% [4.25 µM] (inactive)
